The molecules listed here are annotated with their IFI.
protocol_details: NOVARTIS: Inhibition Frequency Index (IFI) - the number of HTS assays where a compound showed > 50% inhibition/induction, expressed as a percentage of the number of assays in which the compound was tested.
Assay type: functional
The full ranking holds about 5,400 compounds; the median of “IFI” is about 2, and the highest 2% start at about 22. This is one part of a sample in which the highest values are shown more often than they occur.

molecule: CCCC(=O)N1CCN(c2nc(Cc3ccccc3)c3c(c2C#N)CC(C)(C)OC3)CC1
units_of_measure: %
IFI: 4.54
//
molecule: CCOC(=O)c1c(N=Cc2cccc(OC)c2O)sc2c1CCN(C)C2
units_of_measure: %
IFI: 0
//
molecule: Cc1ccccc1C[n+]1cc(-c2ccc(Cl)cc2)n2c1CCC2
units_of_measure: %
IFI: 7.14
//
molecule: CCOC(=O)c1c(-c2ccc3c(c2)OCO3)[nH]c2cccc(OC)c2c1=O
units_of_measure: %
IFI: 0
//
molecule: CC(=O)N(C)C1=C(N2CCCCCC2)C(=O)c2ccccc2C1=O
units_of_measure: %
IFI: 22.5
//
molecule: CCCCNC1=CC(=O)C(=O)c2ccccc21
units_of_measure: %
IFI: 15.4
//
molecule: CCOC(=O)c1c(-c2ccc3c(c2)OCO3)[nH]c2cc(OC)ccc2c1=O
units_of_measure: %
IFI: 0
//
molecule: CCCN(C(=O)Nc1c(C(C)C)cccc1C(C)C)C(CC)c1nc2ccccc2c(=O)n1-c1cccc(C)c1 (stereo unspecified)
units_of_measure: %
IFI: 0.943
//
molecule: CC(=O)N(C1=C(N2CCCC2)C(=O)c2ccccc2C1=O)c1ccc(F)cc1
units_of_measure: %
IFI: 8.11
//
molecule: CC(=O)N(C1=C(N(C)C)C(=O)c2ccccc2C1=O)c1cc(C)cc(C)c1
units_of_measure: %
IFI: 15.4
//
molecule: CCN1CCN(c2c(C(=O)c3ccccc3)cnc3cc(OC)c(OC)cc23)CC1
units_of_measure: %
IFI: 2.22
//
molecule: CCCCCC[P+](N(CCC)CCC)(N(CCC)CCC)N(CCC)CCC
units_of_measure: %
IFI: 29.1
//
molecule: Cc1ccc(Nc2nc(-c3ccccn3)cs2)cc1
units_of_measure: %
IFI: 3.62
//
molecule: CCOc1ccc(-c2noc(-c3ccncc3)n2)cc1OCC
units_of_measure: %
IFI: 0
//
molecule: CC(=O)N(C1=C(N(C)C)C(=O)c2ccccc2C1=O)c1ccc(Cl)c(Cl)c1
units_of_measure: %
IFI: 7.69
//
molecule: CC1C/C(=C/c2ccncc2)C(=O)/C(=C/c2ccncc2)C1 (stereo unspecified)
units_of_measure: %
IFI: 33.3
//
molecule: CC(=O)N(C1=C(N2CCOCC2)C(=O)c2ccccc2C1=O)c1ccc(F)cc1
units_of_measure: %
IFI: 24.7
//
molecule: CC(C)CN(C(C(=O)NC(CN1CCCC1)c1ccccc1)c1ccccc1)S(=O)(=O)c1ccccn1 (stereo unspecified)
units_of_measure: %
IFI: 1.96
//
molecule: O=C(C1=C(O)C(=O)N(CCCn2ccnc2)C1c1ccccc1[N+](=O)[O-])c1ccccc1 (stereo unspecified)
units_of_measure: %
IFI: 0
//
molecule: CCOC(=O)c1c(C)[n+](-c2ccc(C)cc2)c(CC)c2cc(OC)c(OC)cc12
units_of_measure: %
IFI: 2.29
//
molecule: COc1cccc(CNc2ncnc3sc(C(=O)NCC4COCCO4)c(C)c23)c1OC (stereo unspecified)
units_of_measure: %
IFI: 1
